Value source: paper PMC9822074

Listed below: pIC50 values for each entry.
Target: SARS-CoV-2 main protease (Mpro, 3CLpro) (Severe acute respiratory syndrome coronavirus 2, UniProt P0DTD1)
# pIC50: negative log10 of molar concentration; output just the value

C=C(C)[C@@H]1CC[C@]2(C(=O)NCCOc3ccc(CCOc4ccc(C[C@H](OCC)C(=O)O)cc4)cc3)CC[C@]3(C)[C@H](CC[C@@H]4[C@@]5(C)CCC(=O)C(C)(C)[C@@H]5CC[C@]43C)[C@@H]12    4.00
CCO[C@@H](Cc1ccc(OCCc2ccc(OCCNC(=O)[C@]34CC[C@@H](C)[C@H](C)[C@H]3C3=CC[C@@H]5[C@@]6(C)CC[C@H](O)C(C)(C)[C@@H]6CC[C@@]5(C)[C@]3(C)CC4)cc2)cc1)C(=O)O    4.00
CCO[C@@H](Cc1ccc(OCCc2ccc(OCCNC(=O)[C@]34CC[C@@H](C)[C@H](C)[C@H]3C3=CC[C@@H]5[C@@]6(C)C[C@@H](O)[C@H](O)C(C)(C)[C@@H]6CC[C@@]5(C)[C@]3(C)CC4)cc2)cc1)C(=O)O    4.60

# evaluate next
input: Indicate the recorded pIC50 value for this compound: CCO[C@@H](Cc1ccc(OCCc2ccc(OCCNC(=O)[C@]34CC[C@@H](C(C)C)[C@@H]3[C@H]3CC[C@@H]5[C@@]6(C)CCC(=O)C(C)(C)[C@@H]6CC[C@@]5(C)[C@]3(C)CC4)cc2)cc1)C(=O)O
output: 4.00
